# PROTOCOL_NOTES: MTT cell viability assay in normal MCF-10A cells
# Format: cell-based
# CONDITION_INFO: human, MCF-10A normal mammary epithelial cells, 25 µM, read-out: Cell Viability (%) ± SD
MEASUREMENT_TYPE: viability at 72 h, 25 µM (%)
Note: unit % is implicit; provide only the numeric part.

O=C(/C=C/c1c[nH]c2ccc([N+](=O)[O-])cc12)C[C@@H]1O[C@H](CO)[C@H](O)[C@H](O)[C@H]1O ... 86.8

Input: Which viability at 72 h, 25 µM value is on record for O=[N+]([O-])c1ccc2[nH]cc(-c3cc(C[C@@H]4O[C@H](CO)[C@@H](O)[C@H](O)[C@H]4O)no3)c2c1 ?
Output: 87.6

Input: Now the molecule O=C(/C=C/c1c[nH]c2ccc(Cl)cc12)C[C@@H]1O[C@H](CO)[C@@H](O)[C@H](O)[C@@H]1O
Output: 85.8

Input: Now the molecule OC[C@H]1O[C@@H](CC2=NNC(c3c[nH]c4ccccc34)C2)[C@H](O)[C@@H](O)[C@H]1O (stereo partly drawn)
Output: 87.6

Input: Now the molecule OC[C@H]1O[C@@H](Cc2cc(-c3c[nH]c4ccccc34)on2)[C@H](O)[C@@H](O)[C@H]1O
Output: 86.8

Input: Now the molecule O=C(/C=C/c1c[nH]c2ccccc12)C[C@@H]1O[C@H](CO)[C@@H](O)[C@H](O)[C@H]1O
Output: 87.6

* * *

# TARGET_OF_ASSAY: COX-2 enzyme (Homo sapiens, UniProt P35354)
# Construct: purchased Bio Vision (BioVision), USA K547 / k547–100
# Sequence (P35354 18-604): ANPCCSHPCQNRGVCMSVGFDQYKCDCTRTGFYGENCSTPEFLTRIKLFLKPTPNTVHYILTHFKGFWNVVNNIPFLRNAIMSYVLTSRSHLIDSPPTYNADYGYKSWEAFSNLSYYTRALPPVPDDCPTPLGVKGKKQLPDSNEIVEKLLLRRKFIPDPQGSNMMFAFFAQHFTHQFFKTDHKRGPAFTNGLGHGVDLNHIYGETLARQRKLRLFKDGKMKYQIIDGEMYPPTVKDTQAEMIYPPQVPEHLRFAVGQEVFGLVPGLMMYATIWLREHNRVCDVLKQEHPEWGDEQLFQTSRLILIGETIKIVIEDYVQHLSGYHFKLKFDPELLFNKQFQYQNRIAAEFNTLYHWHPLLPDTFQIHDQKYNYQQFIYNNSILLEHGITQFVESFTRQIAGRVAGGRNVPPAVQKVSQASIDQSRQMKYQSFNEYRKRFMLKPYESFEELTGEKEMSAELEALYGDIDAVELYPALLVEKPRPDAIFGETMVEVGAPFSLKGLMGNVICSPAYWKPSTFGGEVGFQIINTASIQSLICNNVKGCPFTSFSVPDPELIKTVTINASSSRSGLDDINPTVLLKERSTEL
# PROTOCOL_NOTES: Fluorescence-based COX-2 inhibitor screening assay
# Assay type: biochemical
# CONDITION_INFO: 25 μM
Item-by-item account of inhibition at 25 µM
Note: unit % is implicit; provide only the numeric part.

These solved cases illustrate the format of a correct answer.
O=C(/C=C/c1c[nH]c2ccc(Cl)cc12)C[C@@H]1O[C@H](CO)[C@@H](O)[C@H](O)[C@@H]1O ... 13.7
OC[C@H]1O[C@@H](CC2=NNC(c3c[nH]c4ccccc34)C2)[C@H](O)[C@@H](O)[C@H]1O (stereo partly shown) ... 6.7
O=C(/C=C/c1c[nH]c2ccccc12)C[C@@H]1O[C@H](CO)[C@@H](O)[C@H](O)[C@H]1O ... 25

Continue with the compound presented below.
Input: Which inhibition at 25 µM value is on record for O=[N+]([O-])c1ccc2[nH]cc(-c3cc(C[C@@H]4O[C@H](CO)[C@@H](O)[C@H](O)[C@H]4O)no3)c2c1 ?
Output: 4.9

* * *

# Tested on: MDA-MB-231 (human breast cancer) cell line
# PROTOCOL_NOTES: MTT cell viability assay in MDA-MB-231 cells
# Assay type: cell-based
# CONDITION_INFO: Homo sapiens, MDA-MB-231, 72 h, MDA-MB-231, 25 µM, 72 h, MTT; read-out: Cell Viability (%) ± SD
MEASUREMENT_TYPE: viability at 25 µM
Be sure to follow the number with its unit.

These solved cases illustrate the format of a correct answer.
O=C(/C=C/c1c[nH]c2ccc(Cl)cc12)C[C@@H]1O[C@H](CO)[C@H](O)[C@H](O)[C@H]1O ... 89.6%
OC[C@H]1O[C@@H](Cc2cc(-c3c[nH]c4ccccc34)on2)[C@H](O)[C@@H](O)[C@H]1O ... 76.4%

Input: Which viability at 25 µM value is on record for OC[C@H]1O[C@@H](CC2=NNC(c3c[nH]c4ccc(Cl)cc34)C2)[C@H](O)[C@@H](O)[C@H]1O (stereo partly shown) ?
Output: 95.2%

Input: Now the compound OC[C@H]1O[C@@H](CC2=NNC(c3c[nH]c4ccc(Cl)cc34)C2)[C@H](O)[C@@H](O)[C@@H]1O (stereo partly shown)
Output: 77.5%

Input: Now the compound OC[C@H]1O[C@@H](CC2=NNC(c3c[nH]c4ccc(Cl)cc34)C2)[C@@H](O)[C@@H](O)[C@@H]1O (stereo partly shown)
Output: 78.5%

Input: Now the compound OC[C@H]1O[C@@H](Cc2cc(-c3c[nH]c4ccc(Cl)cc34)on2)[C@H](O)[C@@H](O)[C@@H]1O
Output: 96.8%

Input: Now the compound OC[C@H]1O[C@@H](Cc2cc(-c3c[nH]c4ccccc34)on2)[C@@H](O)[C@@H](O)[C@@H]1O
Output: 81.2%

* * *

# PROTOCOL_NOTES: MTT cell viability assay in normal MCF-10A cells
# Format: cell-based
# CONDITION_INFO: human, MCF-10A normal mammary epithelial cells, 50 µM, read-out: Cell Viability (%) ± SD
Item-by-item account of viability at 72 h, 50 µM
Note: unit % is implicit; provide only the numeric part.

These solved cases illustrate the format of a correct answer.
OC[C@H]1O[C@@H](CC2=NNC(c3c[nH]c4ccccc34)C2)[C@H](O)[C@@H](O)[C@H]1O (stereo partly drawn) ... 84.6
OC[C@H]1O[C@@H](Cc2cc(-c3c[nH]c4ccccc34)on2)[C@H](O)[C@@H](O)[C@H]1O ... 83.2
O=[N+]([O-])c1ccc2[nH]cc(-c3cc(C[C@@H]4O[C@H](CO)[C@@H](O)[C@H](O)[C@H]4O)no3)c2c1 ... 80.1

Input: Which viability at 72 h, 50 µM value is on record for O=C(/C=C/c1c[nH]c2ccc([N+](=O)[O-])cc12)C[C@@H]1O[C@H](CO)[C@H](O)[C@H](O)[C@H]1O ?
Output: 84.6

Input: Now the compound O=C(/C=C/c1c[nH]c2ccccc12)C[C@@H]1O[C@H](CO)[C@@H](O)[C@H](O)[C@H]1O
Output: 81.3

Input: Now the compound O=C(/C=C/c1c[nH]c2ccc(Cl)cc12)C[C@@H]1O[C@H](CO)[C@@H](O)[C@H](O)[C@@H]1O
Output: 78.8

* * *

# Test system: MDA-MB-231 (human breast cancer) cell line
# PROTOCOL_NOTES: MTT cell viability assay in MDA-MB-231 cells
# Assay type: cell-based
# CONDITION_INFO: Homo sapiens, MDA-MB-231, 72 h, MDA-MB-231, 25 µM, 72 h, MTT; read-out: Cell Viability (%) ± SD
Item-by-item account of viability at 25 µM
Note: unit % is implicit; provide only the numeric part.

These solved cases illustrate the format of a correct answer.
OC[C@H]1O[C@@H](Cc2cc(-c3c[nH]c4ccc(Br)cc34)on2)[C@@H](O)[C@@H](O)[C@@H]1O ... 85.2
O=C(/C=C/c1c[nH]c2ccc(Cl)cc12)C[C@@H]1O[C@H](CO)[C@@H](O)[C@H](O)[C@H]1O ... 89.8
OC[C@H]1O[C@@H](CC2=NNC(c3c[nH]c4ccccc34)C2)[C@H](O)[C@@H](O)[C@H]1O (stereo partly shown) ... 54.2
O=C(/C=C/c1c[nH]c2ccc(Br)cc12)C[C@@H]1O[C@H](CO)[C@@H](O)[C@H](O)[C@H]1O ... 100
O=C(/C=C/c1c[nH]c2ccc([N+](=O)[O-])cc12)C[C@@H]1O[C@H](CO)[C@H](O)[C@H](O)[C@H]1O ... 59
OC[C@H]1O[C@@H](CC2=NNC(c3c[nH]c4ccc(Br)cc34)C2)[C@H](O)[C@@H](O)[C@@H]1O (stereo partly shown) ... 88.8

Input: Which viability at 25 µM value is on record for O=C(/C=C/c1c[nH]c2ccccc12)C[C@@H]1O[C@H](CO)[C@@H](O)[C@H](O)[C@@H]1O ?
Output: 80.5

* * *

# Tested on: MDA-MB-231 (human breast cancer) cell line
# PROTOCOL_NOTES: MTT cell viability assay in MDA-MB-231 cells
# Assay type: cell-based
# CONDITION_INFO: Homo sapiens, MDA-MB-231, 72 h, MDA-MB-231, 25 µM, 72 h, MTT; read-out: Cell Viability (%) ± SD
MEASUREMENT_TYPE: viability at 25 µM (%)
Note: unit % is implicit; provide only the numeric part.

These solved cases illustrate the format of a correct answer.
OC[C@H]1O[C@@H](Cc2cc(-c3c[nH]c4ccc(Cl)cc34)on2)[C@@H](O)[C@@H](O)[C@@H]1O ... 82.9
O=C(/C=C/c1c[nH]c2ccc([N+](=O)[O-])cc12)C[C@@H]1O[C@H](CO)[C@@H](O)[C@H](O)[C@H]1O ... 78.5
OC[C@H]1O[C@@H](CC2=NNC(c3c[nH]c4ccccc34)C2)[C@@H](O)[C@@H](O)[C@@H]1O (stereo partly shown) ... 76.6
OC[C@H]1O[C@@H](Cc2cc(-c3c[nH]c4ccc(Br)cc34)on2)[C@H](O)[C@@H](O)[C@@H]1O ... 95.3
O=[N+]([O-])c1ccc2[nH]cc(-c3cc(C[C@@H]4O[C@H](CO)[C@@H](O)[C@H](O)[C@H]4O)no3)c2c1 ... 46.1

Input: Item O=[N+]([O-])c1ccc2[nH]cc(C3CC(C[C@@H]4O[C@H](CO)[C@@H](O)[C@H](O)[C@H]4O)=NN3)c2c1 (stereo partly shown) with MDA-MB-231 (human breast cancer) cell line - viability at 25 µM?
Output: 68.6

Input: Now the molecule OC[C@H]1O[C@@H](CC2=NNC(c3c[nH]c4ccc(Br)cc34)C2)[C@@H](O)[C@@H](O)[C@@H]1O (stereo partly shown)
Output: 90.1
